Target: CYP4F3A (Homo sapiens)
Sequence (Q08477 whole entry): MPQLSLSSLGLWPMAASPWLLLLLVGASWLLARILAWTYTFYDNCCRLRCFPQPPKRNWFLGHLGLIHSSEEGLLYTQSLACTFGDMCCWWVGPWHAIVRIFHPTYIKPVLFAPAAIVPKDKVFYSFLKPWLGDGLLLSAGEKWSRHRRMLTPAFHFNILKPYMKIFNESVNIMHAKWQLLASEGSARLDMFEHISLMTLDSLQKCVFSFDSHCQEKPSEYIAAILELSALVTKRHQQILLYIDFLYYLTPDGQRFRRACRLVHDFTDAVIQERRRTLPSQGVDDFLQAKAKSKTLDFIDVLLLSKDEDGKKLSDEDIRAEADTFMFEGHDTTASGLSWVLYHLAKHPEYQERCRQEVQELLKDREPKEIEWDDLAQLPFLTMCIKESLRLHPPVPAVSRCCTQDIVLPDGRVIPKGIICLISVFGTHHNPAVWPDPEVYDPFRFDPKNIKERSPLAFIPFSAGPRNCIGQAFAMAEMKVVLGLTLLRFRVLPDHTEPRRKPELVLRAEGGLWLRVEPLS
Test: recombinant CYP4F3A LTB4 omega-oxidation assay, HPLC; Michaelis-Menten and Lineweaver-Burk kinetics

| smiles_entry | system_tested | IC50 |
| --- | --- | --- |
| CCc1cncnc1N1CCN(Cc2nc3cc(C(F)(F)F)ccc3[nH]2)CC1 | CYP4F3A (Homo sapiens) | ~750 nM |
